Origin of values: PubChem BioAssay AID504834

- EXPERIMENT: Primary qHTS for delayed death inhibitors of the malarial parasite plastid, 96 hour incubation; note: potency is the fitted concentration of half-maximal effect
- CONDITION_DETAILS: P. falciparum luciferase reporter growth; series mostly up to 28.7 µM
In all, about 320,000 compounds went through this assay and about 22,000 (6.9%) were called active. Another 27% or so got no clear call; they are omitted. Shown is part of a subset that was picked to be rich in actives.
TEST_READOUT: Potency

Worked cases, Potency given:
COc1ccc(C(=O)CCc2ccccc2O)c(OC)c1; inactive
CCN(CC)CCC(c1cc(OC)c(OC)c(OC)c1)c1c(OC)cc(OC)c2c(-c3ccccc3)cc(=O)oc12 (stereo not drawn); 2.94 µM (active)
COc1ccc(/C=C/C(=O)Nc2ccc(C)cc2)cc1S(=O)(=O)N1CCOCC1; 11.7 µM (active)
COCC(=O)N1CCc2ccc(NC(=O)c3ccccc3Cl)cc2C1; inactive
CC(OC(=O)CCCc1c[nH]c2ccccc12)C(=O)Nc1ccc(S(N)(=O)=O)cc1 (stereo not drawn); inactive

### Prompt What value of measured Potency is listed for CC(=O)c1ccc(NC(=O)c2cc(-c3cccs3)on2)cc1 ?
### Response inactive

### Prompt Looking for the measured Potency of CC(=O)NN1C(=O)c2ccccc2NC1c1ccccc1 (stereo not drawn) , can you help?
### Response inactive

### Prompt Recorded Potency of O=C(Nc1ccccn1)C1CCN(S(=O)(=O)c2ccccc2)CC1 , please.
### Response inactive

### Prompt What Potency value was documented for this compound, CC(=O)COc1ccc2c(-c3ccccc3)cc(=O)oc2c1 ?
### Response inactive

### Prompt Fill blank: measured Potency of the compound CCCCN(CC)C(=O)c1ccc2c(c1)OCO2 is ____.
### Response inactive

### Prompt Reported Potency, compound Fc1ccc(OCc2nn3c(Cn4nnc5ccccc54)nnc3s2)cc1 : ____
### Response inactive

---

- EXPERIMENT: Primary qHTS for delayed death inhibitors of the malarial parasite plastid, 96 hour incubation; note: potency is the fitted concentration of half-maximal effect
- CONDITION_DETAILS: P. falciparum luciferase reporter growth; series mostly up to 28.7 µM
Out of some 320,000 compounds screened, about 22,000 (6.9%) were called active. About 27% were inconclusive and are not listed. The sample as a whole holds a higher share of actives than the screen did.
TEST_READOUT: Potency

// worked examples, Potency included
CCOC(=O)CN1CCC(c2ccccc2)CC1; inactive
N#Cc1ccsc1NC(=O)CN1CCN(S(=O)(=O)c2cc(Cl)ccc2Cl)CC1; 4.15 µM (active)
C/C(=N\Nc1ccc(S(N)(=O)=O)cc1[N+](=O)[O-])c1cccs1; inactive
Cc1ccc(S(=O)(=O)N2CCN(C(=O)c3ccc(-n4cncn4)c([N+](=O)[O-])c3)CC2)cc1; inactive
COc1c(O)ccc2c1CN1CCc3cc4c(cc3C1C2)OCO4 (stereo unspecified); 3.29 µM (active)

Shift focus to the following entry.
### Prompt Quick one: Potency for O=S(=O)(NCc1cccnc1)c1ccc(Br)s1 ?
### Response inactive

---

- EXPERIMENT: Primary qHTS for delayed death inhibitors of the malarial parasite plastid, 96 hour incubation
- CONDITION_DETAILS: P. falciparum luciferase reporter growth; series mostly up to 28.7 µM
In all, about 320,000 compounds went through this assay and about 22,000 (6.9%) were called active. About 27% were inconclusive and are not listed. Calls follow the shape of the dose curve; as a rule, active = well fitted inhibition curve with a large enough effect; inconclusive = small, poorly fitted or top-dose-only effect, or another doubt; inactive = no such curve, though single readings can be large or run the other way. The list comes from a sample in which actives are over-represented; it also holds close analogues and randomly drawn compounds.
Outcome (select one): 1 (yes) = active, 0 (no) = inactive

Answered cases to consult:
CC1(C)Oc2ccc3ccc(=O)oc3c2/C(=N/O)C1=O; 0 (no)
CCc1ccccc1NC(=O)c1cccs1; 0 (no)
O=C(O)c1cc(S(=O)(=O)NC2CCCc3ccccc32)ccc1O (stereo not drawn); 0 (no)
O=C(CSc1ncccn1)N1CCCC1; 0 (no)

### Prompt Which outcome was entered for the compound COc1ccc(CCNC(=S)N2CCN(S(=O)(=O)c3ccc(F)cc3)CC2)cc1 in this test?
### Response 1 (yes)
